Experiment: Tanguay_ZF_120hpf_AXIS_legacy: (Legacy) Oregon State University Tanguay Lab 120 Hour Post-fertilization zebrafish Assay for Body Axis Malformation (AID 2283635)
Inconclusive results are not listed. The source made the active and inactive calls. Rule for the calls: active = hit-call score of the fitted dose curve at least 0.9, where 1 is the maximum; inconclusive = response in the unintended direction; inactive = score below 0.9.
Write down one outcome, taken from Y = active, N = inactive

Lookup: # fetch the recorded call for `CN1CCN(Cc2cc(-c3ccc4[nH]c(=O)oc4c3)co2)[C@@H](c2ccc(F)cc2)C1` here
Found: N

Lookup: Could you please tell me the result logged for `CN[C@H]1CC[C@@H](c2ccc(Cl)c(Cl)c2)c2ccc(S(N)(=O)=O)cc21` in this assay?
Found: N

Lookup: Test call for this molecule, please: `Cc1cc(NC(=O)C(=O)O)cc(C)c1Oc1ccc(O)c2c1CCC2`
Found: Y

Lookup: How was `COc1ccc2c(c1)c(CC(=O)O)c(C)n2C(=O)c1ccc(Cl)cc1` classified in this test?
Found: N

Lookup: What is the recorded call for this molecule in the test? `Cc1oc(-c2ccccc2)nc1CCOc1cccc2c1ccn2CCC(=O)O`
Found: N

Lookup: Lab log entry: `O=C(OCCCCCOC(=O)c1ccccc1)c1ccccc1` — outcome as called in the assay?
Found: N

Lookup: Record lookup: outcome of this test for `CCOC(=O)C(C)(C)Oc1ccc(Cl)cc1` ?
Found: Y

Lookup: Which outcome was assigned to Cc1nc(-c2ccc3c(c2)CCN(CCC2CCC(NC(=O)/C=C/c4ccc(F)cc4)CC2)CC3)no1 (stereo not drawn) in this test?
Found: N

----------
Read-out: Insulin Like Growth Factor 1 (IGF1), IGF1 (gene 3479)
Assay: LTEA_HepaRG_IGF1: Life Technologies and Expression Analysis (LTEA) Assay for Insulin Like Growth Factor 1 (IGF1) using HepaRG (AID 2283506)
Details: mRNA level, 48 h; actives raise or lower the signal
Activity calls are given as the source filed them. The calls were made as follows: active = hit-call score of the fitted dose curve at least 0.9, where 1 is the maximum; inactive = score below 0.9.
Write down the outcome that applies. Available outcomes: true (active), false (inactive)

Lookup: Hi, sorry to bother you, what did the test record for `COc1cc(S(=O)(=O)O)c(C)cc1N=Nc1c(O)ccc2cc(S(=O)(=O)O)ccc12` ?
Found: false

Lookup: Could you kindly confirm the outcome this assay logged for `CCCCCCCCCCCC(=O)OC` ?
Found: false

Lookup: Kindly provide the recorded test outcome for the following molecule: `O=[N+]([O-])C(CO)(CO)CO`
Found: false

Lookup: Per the records of this test, what outcome belongs to `NCC1(Cc2noc(=O)[nH]2)CCCCC1` ?
Found: false

Lookup: Name the outcome recorded for `Nc1ccc(S(=O)(=O)c2ccc(N)cc2)cc1` in the assay.
Found: false

Lookup: Call for entry `O=C(OCCCCCOC(=O)c1ccccc1)c1ccccc1` :
Found: true

Lookup: For this molecule, state the assay outcome: `CC(=O)Oc1ccccc1C(=O)O`
Found: false

Lookup: Please indicate how the test categorized `CCOC(=O)CCC(=O)OCC` .
Found: false

Lookup: // return assay outcome for `CC1(C)NC(=O)NC1=O`
Found: false

Lookup: Test call, this molecule: `Cc1ccc(C)c(C)c1`
Found: false

----------
Read-out: Urokinase-type plasminogen activator receptor (uPAR), PLAUR (gene 5329)
Experiment: BSK_4H_uPAR: BioMAP Diversity Plus: 4H Assay for Urokinase-type plasminogen activator receptor (uPAR) Biomarker Activity (AID 2283030)
Settings: primary human endothelial cells (HUVEC); actives raise or lower the signal
Active and inactive are the calls of the source. Rule for the calls: active = hit-call score of the fitted dose curve at least 0.9, where 1 is the maximum; inactive = score below 0.9.
Measured Endpoint: AC50

In the examples that follow, each entry is paired with its recorded AC50.
CCCCCCCCCCO: inactive
CCCCCCCCCCCCCCCC: inactive
Cc1ccc2ncccc2c1: inactive
CN1CCN(Cc2cc(-c3ccc4[nH]c(=O)oc4c3)co2)[C@@H](c2ccc(F)cc2)C1: 11.3 µM (active)

Lookup: Identify measured AC50 corresponding to `CCc1c(C(=O)NN2CCCCC2)nn(-c2ccc(Cl)cc2Cl)c1-c1ccc(Br)cc1`
Found: 6.58 µM (active)
